Please respond with reported fold induction at 24 h for every item in the list.
Test system: Rtkn-GFP
assayOverview: in vitro
appliedConditions: mouse

Each of the following entries comes with a recorded value; kindly state fold induction at 24 h for each.
1. CC1CN1CC(O)COC(=O)NCCCCCCn1c(=O)n(CCCCCCNC(=O)OCC(O)CN2CC2C)c(=O)n(CCCCCCNC(=O)OCC(O)CN2CC2C)c1=O (centres unmarked)
2. CC1CN1CC(O)COc1ccc(N(CC(O)CN2CC2C)CC(O)CN2CC2C)cc1 (centres unmarked)

1.2
1.7

* * *

Please respond with reported fold induction at 3 h for every item in the list.
Test system: Bscl2-GFP
assayOverview: in vitro
appliedConditions: mouse, −fold induction Bscl 2

Each of the following entries comes with a recorded value; kindly state fold induction at 3 h for each.
1. CC1CN1CC(O)COC(=O)NCCCCCCn1c(=O)n(CCCCCCNC(=O)OCC(O)CN2CC2C)c(=O)n(CCCCCCNC(=O)OCC(O)CN2CC2C)c1=O (stereo not shown)
2. CC1CN1CC(O)COc1ccc(C(C)(C)c2ccc(OCC(O)CN3CC3C)cc2)cc1 (stereo not shown)
3. CC1CN1CC(O)CN(Cc1cccc(CN(CC(O)CN2CC2C)CC(O)CN2CC2C)c1)CC(O)CN1CC1C (stereo not shown)
4. CC1CN1CC(O)COc1ccc(N(CC(O)CN2CC2C)CC(O)CN2CC2C)cc1 (stereo not shown)

1. 1.2
2. 1.1
3. 1.3
4. 1.2

* * *

System: Bscl2-GFP
assayOverview: in vitro
appliedConditions: mouse, −fold induction Bscl 2
measuredAttribute: fold induction at 24 h
Give bare numbers.

Examples with their reported fold induction at 24 h follow.
CC1CN1CC(O)COC(=O)NCCCCCCn1c(=O)n(CCCCCCNC(=O)OCC(O)CN2CC2C)c(=O)n(CCCCCCNC(=O)OCC(O)CN2CC2C)c1=O (stereo not shown) :: 1.1
CC1CN1CC(O)CN(Cc1cccc(CN(CC(O)CN2CC2C)CC(O)CN2CC2C)c1)CC(O)CN1CC1C (stereo not shown) :: 1.3
CC1CN1CC(O)COc1ccc(N(CC(O)CN2CC2C)CC(O)CN2CC2C)cc1 (stereo not shown) :: 1.1

Assign fold induction at 24 h to the following record: CC1CN1CC(O)COc1ccc(C(C)(C)c2ccc(OCC(O)CN3CC3C)cc2)cc1 (stereo not shown)
1.1
